Measured OD 492 nm, listed per entry for reference.
Target: T1, recombinantly expressed purified soluble WNV E protein (strain 382-99) (West Nile virus strain 382-99, UniProt Q9Q6P4 291-696)
T1 construct: also called recombinant WNV-E protein; truncated E protein; not shown: Myc tag and His tag
T1 sequence: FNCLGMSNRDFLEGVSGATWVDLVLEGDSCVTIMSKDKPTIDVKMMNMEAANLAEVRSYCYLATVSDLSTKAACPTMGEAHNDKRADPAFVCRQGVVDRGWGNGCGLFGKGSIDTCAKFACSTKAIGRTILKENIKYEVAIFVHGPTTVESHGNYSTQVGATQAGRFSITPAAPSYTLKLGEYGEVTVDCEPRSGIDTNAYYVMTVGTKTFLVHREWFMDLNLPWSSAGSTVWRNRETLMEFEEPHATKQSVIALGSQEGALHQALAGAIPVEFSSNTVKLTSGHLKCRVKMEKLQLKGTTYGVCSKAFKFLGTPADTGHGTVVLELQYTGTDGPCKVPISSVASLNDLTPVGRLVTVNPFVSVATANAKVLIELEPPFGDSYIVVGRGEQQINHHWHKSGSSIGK
Assay: phage ELISA, coated recombinant soluble WNV E protein
Numeric answer only, unit OD 492 nm assumed.

Look over these answered cases.
BINDER	OD 492 nm, OD 492 nm
SC04-311 (scFv) scFv: EVQLVQSGGGVVQPGRSLRLSCVASGFTFSKDAMHWVRQAPGKGLEWVAVISYDGSDKHYADSVKGRVTISRDNSRKTLYLRMDSLRAEDTALYYCARGYNSGHYFDYWGQGTLITVSSGTGGSGGTGSGTGGSTQSVLTQPPSVSAAPGQKVTISCSGTSSNIGDNYVSWYQHLPGTAPKLLIYDNNKRPSGIPDRFSGSKSGTSATLGVTGLQTGDEADYYCGTWDSSLTAVVFGGGTKLTVLG	1.54
SC04-289 (scFv) scFv: QMQLVQSGAEVKKPGESLRISCKGSGYSFTSNWITWVRQMPGKGLEWMGRIDPSDSYTNYSPSFQGHVTISADKSISTAYLQWSSLKASDTAMYYCARDVVGVGASDYYYYMDVWGKGTTVTVSSGTGGSGGTGSGTGGSTEIVLTQSPGTLSLSPGETATLSCRTSQSVSSSYLGWYQQKPGQAPRLLIYGASIRATGIPARFSGSGSGTEFTLTIDSLQSEDFAVYYCQQYNNWPPITFGQGTRLEIKR	1.39
SC04-374 (scFv) scFv: QVTLKESGPTLVKPTQTLTLTCTFSGFSLSTSGVGVGWIRQPPGKALEWLAVIYWNDDKLYRPSLKSRLTITKDTSKNQVVLTMTKMDPVDTATYYCAHRHRYYDISGYYRLFSDAFDIWGQGTMVTVSSGTGGSGGTGSGTGGSTQSVVTQPPSVSGAPGQRVTISCTGSSSNIGAGYDVHWYQQLPGTAPKLLIYGNSNRPSGVPDRFSGSKSGTSASLAITGLQAEDEADYYCQSYDSSLSGSVFGGGTKLTVLG	1.36

// Input: SC04-283 (scFv) scFv: EVQLVQSGAEVKKSGESLKISCKGSGYTFNTYWIGWVRQMPGKGLEWMGIIYPGDSDTIYSPSFQGQVTISADKSISTAYLQWSSLKASDSAMYYCARLTFRRGYSGSDSFLPPGDFDYWGQGTLVTVSSGTGGSGGTGSGTGGSTDIQMTQSPSTLSASVGDRVTITCRASQSISSWLAWYQQKPGKAPNLLIYAASSLQSGVPSRFSGSGSGTDFTLTISSLQPDDSATYYCQQYNTYPLTFGGGTKVEIKR . Output its OD 492 nm only. 0.074

Report OD 492 nm, nothing else, for this binder: SC04-325 (scFv) scFv: QMQLVQSGAEVKKPGSSVKVSCKASGDTFSSYAISWVRQAPGQGLEWMGGIFGTASYAQKFQGRVTITADESTSTAYMELSSLRSEDTAVYYCARGGMATTPGLDYWGQGTLVTVSSGTGGSGGTGSGTGGSTDIQLTQSPDSLAVSLGERATINCKSSQSVLYSSNNKNYLAWYQQKPGQPPKLLIYWASTRESGVPDRFSGSGSGTDFTLTISSLQAEDVAVYYCQQYYSTPLTFGQGTKVEIKR 1.4

# credit: patent US7244430
